- Experimental Details: Pharmacokinetics in rats according to deuterium substitution
- Format: in vivo
- Condition Set: Sprague-Dawley, rat, plasma; male rats, oral 10 mg/kg, 1 hr after administration; read-out: Blood concentration
Assay Endpoint: concentration at 1 h (ng/mL)
Report only the number, with the unit ng/mL understood.

{"columns": ["Molecule", "Unit", "concentration at 1 h"],
 "data": [
  ["[2H]C([2H])([2H])NCc1cn(S(=O)(=O)c2cccnc2)c(-c2ccc(F)cc2F)c1OC", "ng/mL", 254]
]}

API: the following record is the query input.
# input molecule: CNCc1cn(S(=O)(=O)c2cccnc2)c(-c2ccc(F)cc2F)c1OC [Comparative Example 2, reference compound] ; wanted: its concentration at 1 h
116
